Values were extracted from the Human Domainome abundance scans (Beltran et al. 2025).

Record form. Attribute: abundance fitness. Fill in for each entry.
B1: Membrane-associated guanylate kinase, WW and PDZ domain-containing protein 2, residues 601 to 682; numbered along this chain, Q86UL8 (parent)
chain: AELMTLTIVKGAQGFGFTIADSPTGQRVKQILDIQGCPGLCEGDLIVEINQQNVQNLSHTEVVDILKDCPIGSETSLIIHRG

- Variants of: B1
- method: abundance fitness (aPCA) (normalised: wild type 0, dead -1); higher = more abundant; growth selection in yeast, the domain comes from the species named
- conditions: Homo sapiens
Lab note: record the figure alone, no unit after it.

Supply abundance fitness value. Item: `T18W` -0.075

Name the recorded abundance fitness of the item `I19Y` in your answer. -0.148

Give recorded abundance fitness. `V47S` -0.09

Look up and report measured abundance fitness for this entry: `R27I` 0.047
